readout: AC50

Recorded AC50 for `O=C(CCN1CCCCC1)c1csc2ccccc12` on UniProt P11712 was 3.16 µM (inconclusive)

Recorded AC50 for O=C(CN1C(=O)C2C3C=CC(C3)C2C1=O)Nc1ccc2c(c1)OCCO2 (stereo not drawn) on UniProt P11712 was 0.316 µM (inconclusive)

Recorded AC50 for COc1ccc(C2C(C(=O)N3CCOCC3)c3ccccc3C(=O)N2c2ccc(OC)cc2)cc1 (stereo not drawn) on UniProt P11712 was 0.501 µM (inconclusive)

Recorded AC50 for `Cc1ccc(C(=O)NC2CCCCCC2)cc1N1CCCC1=O` on UniProt P11712 was 25.1 µM (inconclusive)

Recorded AC50 for `COC(=O)N1CCC2(CCCN(c3ccccn3)C2)CC1` on UniProt P11712 was 31.6 µM (inconclusive)

Recorded AC50 for `O=C(CSCc1c(Cl)cccc1Cl)NCc1cccnc1` on UniProt P11712 was 7.94 µM (inconclusive)

Recorded AC50 for `COC(=O)N1CCC[C@@]2(CCN(c3ccccn3)C2)C1` on UniProt P11712 was 20 µM (inconclusive)

Recorded AC50 for CCCS(=O)(=O)N1CCCC(C(=O)NCCCN2CCN(c3cccc(Cl)c3)CC2)C1 (stereo not drawn) on UniProt P11712 was 28.2 µM (inconclusive)

Recorded AC50 for `O=S(=O)(O)c1cc(O)c2c(O)c(/N=N\c3cccc4ccccc34)c(S(=O)(=O)O)cc2c1` on UniProt P11712 was 7.94 µM (inconclusive)

Recorded AC50 for `CCc1nnc(S)n1/N=C/c1ccc2c(c1)OCO2` on UniProt P11712 was 35.5 µM (inconclusive)

Recorded AC50 for C=CCC(C)(NCc1ccccc1)c1ccco1 (stereo not drawn) on UniProt P11712 was 0.0355 µM (inconclusive)

Recorded AC50 for `Cc1ccc(-c2csc(NC(=S)NC(=O)/C=C/c3ccco3)n2)cc1` on UniProt P11712 was 0.282 µM (inconclusive)

Recorded AC50 for `COc1ccc2c(c1)C(=O)N(c1ccccc1)C(=O)C2` on UniProt P11712 was 22.4 µM (inconclusive)

* * *

target: Kappa-type opioid receptor (Homo sapiens, UniProt P41145); assay type: functional
Sequence (P41145 whole entry): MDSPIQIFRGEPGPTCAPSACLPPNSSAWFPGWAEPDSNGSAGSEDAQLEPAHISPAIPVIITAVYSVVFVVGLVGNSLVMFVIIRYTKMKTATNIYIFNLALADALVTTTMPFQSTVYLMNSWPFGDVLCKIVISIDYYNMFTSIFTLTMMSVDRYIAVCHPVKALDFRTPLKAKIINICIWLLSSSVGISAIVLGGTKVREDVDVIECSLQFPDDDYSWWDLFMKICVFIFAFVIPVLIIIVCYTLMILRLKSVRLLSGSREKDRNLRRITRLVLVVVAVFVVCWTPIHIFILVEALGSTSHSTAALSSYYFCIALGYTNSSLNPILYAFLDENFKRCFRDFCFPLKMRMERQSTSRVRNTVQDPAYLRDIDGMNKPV
pIC50: −log10 of the molar value.
readout: pIC50

pIC50 in this record for `N#CC(C#N)=C1C=CC=CN1/C(=C\c1ccco1)C(=O)c1ccc(-c2ccccc2)cc1` : < 4.49

* * *

Task for the reader: assign each of the following compounds its reported EC50.
test: Luminescence Cell-Based Dose Response HTS to Identify Inhibitors of 5'UTR Stem-Loop Driven Prion Protein mRNA Translation in H4 Neuroglioblastoma Cells. [Related pubchem assays: 1827 (Project Summary), 1813 (Primary HTS)]; type: functional
Activity calls are given as the source filed them.

EC50 in this record for `Nc1ccc(C(=O)n2c3ccccc3c3ccccc32)cc1` : 9.6 µM (active)

EC50 in this record for `COCCn1c(C)cc(C2=NN=C(Nc3ccccc3F)SC2)c1C` : < 0.1 µM (active)

EC50 in this record for `CCc1c(C)nc(N)n2c(SCC(=O)Nc3ccccc3OC)nnc12` : > 120 µM (not active)

EC50 in this record for `Oc1cc(-c2ccccc2)nc2cc(Cl)ccc12` : 2.36 µM (active)

EC50 in this record for CCS(=O)(=O)c1nc(S(=O)(=O)c2ccc(C)cc2)c(N2CC(C)CC(C)C2)s1 (stereo unspecified) : > 120 µM (not active)

EC50 in this record for Cc1cccc(N2CCN(C(=O)CC(NC(=O)c3ccccc3)c3ccccc3)CC2C)c1 (stereo unspecified) : > 120 µM (not active)
